TEST TARGET: human SOS1 (loading of human K-Ras^G12C-GDP with fluorescent GTP-analog) (Homo sapiens, UniProt Q07889)
TEST: Biochemical assay 3: K-Ras^G12C activation assay by hSOS1 (HTRF)
TEST SETTINGS: no GTP; read-out: Assay 3 (KRAS-Activation by SOS no GTP) activity expressed as IC50
EXPERIMENTAL ENDPOINT: IC50 (nM)
One number for each entry, in nM.

Example results:
COc1cc2nc(C)nc(NC(C)c3cccc4c3cnn4C)c2cc1OC (centres unmarked)    712
C/C=C(\C)c1cccc([C@@H](C)Nc2nc(C)nc3cc(OC)c(OC)cc23)c1    952

Take each entry in turn and give its IC50.
1. COc1cc2nc(C)nc(N[C@H](C)c3cccc(-c4ccccc4NC(C)=O)c3)c2cc1OC
2. COc1cc2nc(C)nc(N[C@H](C)c3cccc(-c4cnn(CCN5CCCC5)c4)c3)c2cc1OC
3. COc1cc2nc(C)nc(N[C@H](C)c3cccc(-c4cnn(CCO)c4)c3)c2cc1OC

1480
852
1350
